- System: TK-10 renal
- Assay overview: NCI-60 one-dose screen, 48 h (100 = growth as untreated, 0 = no growth, -100 = all killed)
- Experimental context: 10 µM unless noted
Compounds without any hit were thinned out: in the full panel of roughly 83,000, 20% have a hit.
Readout: growth (%)

Compound	Uom	Recorded number
O=C(OC(CO)C(=O)NC12CC3CC(CC(C3)C1)C2)c1ccc(Cl)cc1 (stereo not given)	%	102
C#CCOc1ccc2ncnc(Nc3ccc(NC(=O)C=C)cc3)c2c1	%	-62.7
O=C(CSc1oc(-c2ccccc2)nc1S(=O)(=O)c1ccccc1)Nc1ccc(F)cc1	%	91.8
Nc1c(C(=O)Nc2ccncc2)sc2nc3c(cc12)C(O)CCC3 (stereo not given)	%	91
O=S(=O)(NCCNc1nccc(-c2c(-c3ccc(F)c(O)c3)nc3sccn23)n1)c1ccc(O)cc1	%	46.3

----------
- Test system: T-47D breast
- Assay overview: NCI-60 one-dose screen, 48 h (100 = growth as untreated, 0 = no growth, -100 = all killed)
- Experimental context: 10 µM unless noted
The panel holds about 83,000 compounds, 20% with a hit somewhere; the sample as a whole holds those more often.
Readout: growth (%)

Smiles notation	Recorded number
COc1cc(OCc2cccc(Br)c2C)cc(OC)c1C=O	37.8
CCSC(SCC)c1ccc(Cl)cc1	101
COC1=CC(c2ccc[nH]2)=N/C1=C\c1[nH]c(C)c(CC(=O)OCc2ccccc2)c1CCC(=O)OCc1ccccc1	-3.22
C=CC[Se]C(=O)Cc1c(C)n(C(=O)c2ccc(Cl)cc2)c2ccc(OC)cc12	-24.3
O=C(O)c1ccc(-n2cc(/C=N/Nc3ccccc3)c(-c3ccc(F)cc3F)n2)cc1	35.4
Cc1ccc(C[P+](c2ccccc2)(c2ccccc2)c2ccccc2)cc1	1.57
CCN(CC)CCCCCNc1cc(OC(=O)c2ccc(Cl)cc2)cc2cccnc12	56
COc1ccc(-c2ccc(=O)oc2-c2cc(OC)c(OC)c(OC)c2)cc1O	67.8
COc1cc(/C=C2/C=C(c3ccccc3)N(CCc3ccc(S(N)(=O)=O)cc3)C2=O)cc(OC)c1OC	83.5
CCOC(=O)C#Cc1c(C(=O)OCC)nnn1Cc1ccc([N+](=O)[O-])cc1	23.8

----------
- Tested on: U251 CNS
- Assay overview: NCI-60 one-dose screen, 48 h (100 = growth as untreated, 0 = no growth, -100 = all killed)
- Experimental context: 10 µM unless noted
This is part of a sample that, as a whole, favours compounds with a hit. Of some 83,000 tested, about 20% had one in any assay.
We begin with a simple list: items and their reported growth.

Compound	Measurement target	Uom	growth
O=C(O)CCCN1C(=O)/C(=C/c2cn(-c3ccccc3)nc2-c2ccc([N+](=O)[O-])cc2)SC1=S	U251 CNS	%	38.2
OCCn1cc(-c2nc(-c3c[nH]c4ncccc34)cs2)c2ccccc21	U251 CNS	%	78.9
COc1ccc(Cc2cnc(NC(=O)c3cc(C)oc3C)s2)cc1	U251 CNS	%	35.8
Fc1cnccc1C1CC(c2ccc(N3CCNCC3)cc2)=NN1 (stereo not given)	U251 CNS	%	95.1
CC(C)=CCCC(C)c1ccc(C)c2c1OCN(CCCCCO)C2 (stereo not given)	U251 CNS	%	83.8
N#C/C(=C\c1c(-c2ccccc2)[nH]c2ccccc12)C(N)=O	U251 CNS	%	79.6
Cc1ccc(Nc2cc(N)nc(N)n2)cc1Cl	U251 CNS	%	97.3
Cc1sc2nc(NCCc3c[nH]c4ccc(Cl)cc34)[nH]c(=O)c2c1C	U251 CNS	%	32.3
COc1ccc(C2CC(c3ccc(Nc4nc(Nc5ccccc5)nc(Nc5ccccc5)n4)cc3)=NN2C(C)=O)cc1 (stereo not given)	U251 CNS	%	88.1
COc1ccc2c(c1)N(CCO)C1=C(C(=O)OC1)C2c1cccc(F)c1 (stereo not given)	U251 CNS	%	16.9

The measured values listed here are drawn from PubChem BioAssay (NCI).
